The reported numbers originate from patent US20240010684A1.

- EXPERIMENTAL SYSTEM: T1, recombinant human MASP1 (amino acids 297-699, C-terminal His Tag) (human, UniProt P48740 297-699)
- T1 sequence: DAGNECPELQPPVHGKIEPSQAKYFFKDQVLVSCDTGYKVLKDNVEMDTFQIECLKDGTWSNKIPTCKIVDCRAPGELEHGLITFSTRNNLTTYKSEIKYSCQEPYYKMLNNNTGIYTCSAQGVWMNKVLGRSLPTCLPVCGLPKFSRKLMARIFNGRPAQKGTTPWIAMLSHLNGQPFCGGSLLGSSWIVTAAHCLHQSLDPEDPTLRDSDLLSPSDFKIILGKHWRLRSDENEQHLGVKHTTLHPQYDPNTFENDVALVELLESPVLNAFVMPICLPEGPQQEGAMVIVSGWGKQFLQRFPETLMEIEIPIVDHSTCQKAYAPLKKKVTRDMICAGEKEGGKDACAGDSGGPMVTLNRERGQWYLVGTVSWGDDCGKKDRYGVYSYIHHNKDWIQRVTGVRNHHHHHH
- ASSAY METHOD TEXT: cell-based or functional assay
Bridges are numbered along the chain shown (N, C = ends). Where no end group is shown, it is not given here. [ ]: non-standard residue; d: D form. Oic = O=C(O)[C@@H]1C[C@@H]2CCCC[C@@H]2N1; tBuAla = CC(C)(C)C[C@H](N)C(=O)O; PEG4 = NCCOCCOCCOCCOCCC(=O)O; Pen = CC(C)(S)[C@H](N)C(=O)O; NMeC = CN[C@@H](CS)C(=O)O; Orn = NCCC[C@H](N)C(=O)O; Dab = NCC[C@H](N)C(=O)O; Dap = NC[C@H](N)C(=O)O; Ahx = NCCCCCC(=O)O; GABA = NCCCC(=O)O

BINDER	human MASP1 IC50
cyclo([GABA]ICSRS[tBuAla]PPI[Pen]IPD) (disulfide 3-11; also: TFA salt) [Example 35: (Gamma-Abu)**-IC+SRS-((tBu)A)-PPI-(Pen)+-IPD**]	4.1 nM
cyclo([Dap]ICSRS[tBuAla]PPI[Pen]IP) (disulfide 3-11; also: TFA salt) [Example 55: (Dap)**-IC+SRS-((tBu)A)-PPI-(Pen)+-IP**]	46 nM
[Orn]AICSRS[tBuAla]PPI[Pen]IPD-NH2 (lactam 1-15; disulfide 4-12; also: TFA salt) [Example 61: (Orn)++-AIC+SRS-((tBu)A)-PPI-(Pen)+-IPD++-NH2]	3.1 nM
cyclo([Dap][Dab]ICSRS[tBuAla]PPI[Pen]I) (disulfide 4-12; also: TFA salt) [Example 73: (Dap)**-(Dab)-IC+SRS-((tBu)A)-PPI-(Pen)+-I**]	42 nM
[dK]ICSRS[tBuAla]PPI[Pen]I (lactam 1-C; disulfide 3-11; also: TFA salt) [Example 80: k++-IC+SRS-((tBu)A)-PPI-(Pen)+-I**]	11 nM
cyclo([Dap][Dap]ICSRS[tBuAla]PPI[Pen]IP) (disulfide 4-12; also: TFA salt) [Example 97: (Dap)**-(Dap)-IC+SRS-((tBu)A)-PPI-(Pen)+-IP**]	5 nM
EGICSRSLP[Oic]I[Pen]IPK-NH2 (lactam 1-15; disulfide 4-12; also: TFA salt) [Example 90: E++GIC+SRSLP-(Oic)-I-(Pen)+-IPK++-NH2]	9.8 nM
cyclo(ICSRS[tBuAla]PPI[Pen]IPP) (disulfide 2-10; also: TFA salt) [Example 58: I**C+SRS-((tBu)A)-PPI-(Pen)+-IPP**]	9 nM
[Orn]AICSRS[tBuAla]PPI[NMeC]IPD-NH2 (lactam 1-15; disulfide 4-12; also: TFA salt) [Example 44: (Orn)++-AIC+SRS-((tBu)A)-PPI-((N-Me)C)+-IPD++-NH2]	4.7 nM
cyclo([Ahx]GICSRSLPPICIPD) (disulfide 4-12; also: TFA salt) [Example 13: (Ahx)**-GIC+SRSLPPIC+IPD**]	140 nM
KICSRS[tBuAla]PPI[Pen]I (lactam 1-C; disulfide 3-11; also: TFA salt) [Example 67: K++-IC+SRS-((tBu)A)-PPI-(Pen)+-I**]	3.25 nM
CAICSRS[tBuAla]PPI[Pen]IPDC-NH2 (disulfide 1-16, 4-12; also: TFA salt) [Example 50: C++AIC+SRS-((tBu)A)-PPI-(Pen)+-IPDC++-NH2]	13 nM
cyclo(AGGICSRS[tBuAla]PPI[Pen]IPD) (disulfide 5-13; also: TFA salt) [Example 29: A**GGIC+SRS-((tBu)A)-PPI-(Pen)+-IPD**]	8.6 nM
[Dap][Dap]ICSRSLP[Oic]I[Pen]IP (lactam 1-C; disulfide 4-12; also: TFA salt) [Example 86: (Dap)++-(Dap)-IC+SRSLP-(Oic)-I-(Pen)+-IP**]	27 nM
cyclo([Ahx]ICSRSLP[Oic]ICI) (disulfide 3-11; also: TFA salt) [Example 95: (Ahx)**-IC+SRSLP-(Oic)-IC+I**]	100 nM
[Ahx][dA]ICSRSLP[Oic]I[Pen]IPE-NH2 (disulfide 4-12; lactam N-15; also: HCl salt) [Example 79: (Ahx)**-aIC+SRSLP-(Oic)-I-(Pen)+-IPE++-NH2 (HCl Salt)]	22 nM
cyclo([Dap][Dap]GICSRSLPPICIPD) (disulfide 5-13; also: TFA salt) [Example 23: (Dap)**-(Dap)-GIC+SRSLPPIC+IPD**]	180 nM
cyclo([PEG4]GICSRSLPPICIPD) (disulfide 4-12; also: TFA salt) [Example 14: (PEG3(16 atoms))**-GIC+SRSLPPIC+IPD**]	170 nM
cyclo(AGGICSRSLP[Oic]I[Pen]IPD) (disulfide 5-13; also: TFA salt) [Example 92: A**GGIC+SRSLP-(Oic)-I-(Pen)+-IPD**]	8.4 nM
cyclo(AGGICSRSLPPICIP[dD]) (disulfide 5-13; also: TFA salt) [Example 17: A**GGIC+SRSLPPIC+IPd**]	26 nM
